The origin of these recorded values is ChEMBL document CHEMBL1140290.

Molecular target: Estrogen receptor (Homo sapiens) (UniProt P03372)
Test: Relative binding affinity of Z isomers to human ERalpha-HBD at 25 degree C compared to [3H]estradiol
observed.property: RBA

Recorded results for 5 compounds are shown here.
C[C@]12CC[C@@H]3c4ccc(O)cc4CC[C@H]3[C@@H]1CC[C@@]2(O)/C=C\c1ccc(C(F)(F)F)cc1	9%
C[C@]12CC[C@@H]3c4ccc(O)cc4CC[C@H]3[C@@H]1CC[C@@]2(O)/C=C\c1ccc(C#N)cc1	12%
COc1ccc(/C=C\[C@]2(O)CC[C@H]3[C@@H]4CCc5cc(O)ccc5[C@H]4CC[C@@]32C)cc1	39%
C[C@]12CC[C@@H]3c4ccc(O)cc4CC[C@H]3[C@@H]1CC[C@@]2(O)/C=C\c1ccc(N)cc1	26%
Cc1ccc(/C=C\[C@]2(O)CC[C@H]3[C@@H]4CCc5cc(O)ccc5[C@H]4CC[C@@]32C)cc1	9%

Item C[C@]12CC[C@@H]3c4ccc(O)cc4CC[C@H]3[C@@H]1CC[C@@]2(O)/C=C\c1ccc(O)cc1 : provide RBA
25%

Item C[C@]12CC[C@@H]3c4ccc(O)cc4CC[C@H]3[C@@H]1CC[C@@]2(O)/C=C\c1ccccc1 : provide RBA
66%

Item C[C@]12CC[C@@H]3c4ccc(O)cc4CC[C@H]3[C@@H]1CC[C@@]2(O)/C=C\c1ccc(F)cc1 : provide RBA
44%

Item CC(=O)c1ccc(/C=C\[C@]2(O)CC[C@H]3[C@@H]4CCc5cc(O)ccc5[C@H]4CC[C@@]32C)cc1 : provide RBA
29%

====

Target: Estrogen receptor (Homo sapiens) (UniProt P03372)
Sequence (whole entry): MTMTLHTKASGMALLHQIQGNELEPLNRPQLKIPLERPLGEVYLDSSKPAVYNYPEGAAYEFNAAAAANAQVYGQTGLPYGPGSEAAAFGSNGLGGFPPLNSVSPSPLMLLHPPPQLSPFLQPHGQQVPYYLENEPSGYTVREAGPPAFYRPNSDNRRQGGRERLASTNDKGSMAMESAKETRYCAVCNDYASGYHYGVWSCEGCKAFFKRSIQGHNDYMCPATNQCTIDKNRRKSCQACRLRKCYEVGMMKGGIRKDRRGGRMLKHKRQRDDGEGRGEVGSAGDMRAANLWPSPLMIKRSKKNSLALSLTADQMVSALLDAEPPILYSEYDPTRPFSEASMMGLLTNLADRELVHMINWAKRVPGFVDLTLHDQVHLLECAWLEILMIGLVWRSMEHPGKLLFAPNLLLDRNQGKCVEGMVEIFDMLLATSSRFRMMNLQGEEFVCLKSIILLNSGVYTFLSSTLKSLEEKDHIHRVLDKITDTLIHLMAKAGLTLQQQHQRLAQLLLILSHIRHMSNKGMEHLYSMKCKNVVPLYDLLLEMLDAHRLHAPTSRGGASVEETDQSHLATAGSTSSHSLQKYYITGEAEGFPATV
Test: Relative binding affinity of Z isomers to human ERalpha-HBD at 4C compared to [3H]estradiol
Below, each of the compounds is paired with its reported RBA value.
Report the value in % with no unit label.

Recorded results for 8 compounds are shown here.
CC(=O)c1ccc(/C=C\[C@]2(O)CC[C@H]3[C@@H]4CCc5cc(O)ccc5[C@H]4CC[C@@]32C)cc1	22
C[C@]12CC[C@@H]3c4ccc(O)cc4CC[C@H]3[C@@H]1CC[C@@]2(O)/C=C\c1ccc(C#N)cc1	20
C[C@]12CC[C@@H]3c4ccc(O)cc4CC[C@H]3[C@@H]1CC[C@@]2(O)/C=C\c1ccc(O)cc1	12
C[C@]12CC[C@@H]3c4ccc(O)cc4CC[C@H]3[C@@H]1CC[C@@]2(O)/C=C\c1ccc(F)cc1	43
C[C@]12CC[C@@H]3c4ccc(O)cc4CC[C@H]3[C@@H]1CC[C@@]2(O)/C=C\c1ccc(N)cc1	22
COc1ccc(/C=C\[C@]2(O)CC[C@H]3[C@@H]4CCc5cc(O)ccc5[C@H]4CC[C@@]32C)cc1	20
C[C@]12CC[C@@H]3c4ccc(O)cc4CC[C@H]3[C@@H]1CC[C@@]2(O)/C=C\c1ccccc1	57
C[C@]12CC[C@@H]3c4ccc(O)cc4CC[C@H]3[C@@H]1CC[C@@]2(O)/C=C\c1ccc(C(F)(F)F)cc1	5

Kindly review the next compound as well.
Item Cc1ccc(/C=C\[C@]2(O)CC[C@H]3[C@@H]4CCc5cc(O)ccc5[C@H]4CC[C@@]32C)cc1 : provide RBA
10
